TARGET: DrOTOP1 E384A (Danio rerio, UniProt Q7ZWK8, E384A)
Construct: A previously generated codon-optimized full-length DrOTOP1[8]; (UniProt: Q7ZWK8) construct; expressed in transfected cells; host or cells: HEK-293 (CRL-1573, ATCC)
Sequence (Q7ZWK8 whole entry E384A): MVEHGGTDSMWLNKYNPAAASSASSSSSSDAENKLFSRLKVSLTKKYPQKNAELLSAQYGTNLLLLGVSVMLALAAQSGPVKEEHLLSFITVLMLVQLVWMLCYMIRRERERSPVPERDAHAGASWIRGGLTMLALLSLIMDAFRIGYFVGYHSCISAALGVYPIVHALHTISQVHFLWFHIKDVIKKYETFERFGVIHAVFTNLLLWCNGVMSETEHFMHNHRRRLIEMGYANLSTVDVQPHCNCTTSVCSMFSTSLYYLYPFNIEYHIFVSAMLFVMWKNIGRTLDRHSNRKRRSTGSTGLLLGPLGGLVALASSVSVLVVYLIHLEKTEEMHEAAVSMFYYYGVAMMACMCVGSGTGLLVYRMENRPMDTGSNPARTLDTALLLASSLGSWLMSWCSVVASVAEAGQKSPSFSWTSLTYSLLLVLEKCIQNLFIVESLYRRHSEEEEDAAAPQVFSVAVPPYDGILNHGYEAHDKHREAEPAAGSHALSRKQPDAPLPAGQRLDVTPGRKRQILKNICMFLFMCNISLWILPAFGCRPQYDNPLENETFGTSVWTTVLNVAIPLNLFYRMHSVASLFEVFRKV
TEST: Whole-cell patch-clamp, inhibition of acid-evoked currents, DrOTOP1 E384A (central site)
Assay type: cell-based, zebrafish (Danio rerio)
RUN_PARAMETERS: pH 5.5
METRIC: pIC50
pIC50 here: minus log base 10 of the concentration, concentration in moles per litre.

What does the record list as pIC50 for `C=C(C)COc1ccccc1NC(=O)c1nc[nH]c1C` ?
4.82
